Hey, just so you know, these numbers are from patent US9290476B2.

Kd values by entry
- experimental target: human RORγt ligand binding domain (RORγt LBD) (Homo sapiens (Human))
- Sequence (P51449 other isoform, or with tags, fused parts or gaps): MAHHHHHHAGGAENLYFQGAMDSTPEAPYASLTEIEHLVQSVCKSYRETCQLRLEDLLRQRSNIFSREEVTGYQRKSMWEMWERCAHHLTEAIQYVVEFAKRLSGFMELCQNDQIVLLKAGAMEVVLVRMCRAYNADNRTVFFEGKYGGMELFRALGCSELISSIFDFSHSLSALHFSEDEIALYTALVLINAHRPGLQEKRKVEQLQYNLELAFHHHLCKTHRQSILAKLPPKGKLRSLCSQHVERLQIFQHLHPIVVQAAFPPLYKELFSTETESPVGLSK
- assay method text: RORγt ThermoFluor assay (thermal shift binding affinity)
- assay conditions: estimated from thermal shift
Field: numeric (µM). Do not append units.

compound="Cc1cc(C(O)(c2ccc(C(F)(F)F)nc2)c2cncn2C)cc2c(C#N)c(Cc3ccc(-n4cccn4)cc3)c(C#N)nc12 (single isomer, unassigned) [Example 65C]" property=Kd value_unit=µM endpoint_result=0.0042
compound="COc1nc2ccc(C(O)(c3ccc(C#N)cc3)c3cncn3C)cc2c(C#N)c1Cc1ccc(C(F)(F)F)cc1 (single isomer, unassigned) [Example 96B]" property=Kd value_unit=µM endpoint_result=0.048
compound="Cn1cncc1C(O)(c1ccc(Cl)cc1)c1ccc2nc(Cl)c(Cc3ccc(-n4cccn4)cc3)c(Cl)c2c1 (stereo not shown)" property=Kd value_unit=µM endpoint_result=0.075

// Kd lookup, compound = OC(c1cccnc1)(c1cccc(Cl)c1)c1ccc2nc(Cl)c(Cc3cccc(Cl)c3)c(Cl)c2c1 (stereo not shown) , result: 0.0077

Summary for this compound, COc1ccc(Cc2c(Cl)nc3ccc(C(O)(c4ccc(Cl)cc4)c4cncn4C)cc3c2Cl)cc1 (stereo not shown) : Kd is 0.016

Summary for this compound, Cn1cncc1C(O)(c1ccc(C(F)(F)F)nc1)c1ccc2nc(N3CCC3)c(Cc3ccc(C(F)(F)F)cc3)c(Cl)c2c1 (single isomer, unassigned) [Example 92B] : Kd is 0.012

Measured Kd of OC(c1cccnc1)(c1cccc(F)c1)c1ccc2nc(Cl)c(Cc3ccc(-n4cccn4)cc3)c(Cl)c2c1 (stereo not shown) : 0.01
